run-description: Selectivity for housefly GABA receptor over mouse GABA receptor
measure: selectivity ratio

Determine from records and report selectivity ratio for FC(F)(F)c1cc(Cl)c(-n2cc3c(n2)C(F)(F)CC3(F)F)c(Cl)c1
4

Determine from records and report selectivity ratio for CC1(O)c2cn(-c3c(Cl)cc(C(F)(F)F)cc3Cl)nc2C(F)C1F (centres undefined)
> 28

Determine from records and report selectivity ratio for FC(F)(F)c1cc(Cl)c(-n2cc3c(n2)CCC3(F)F)c(Cl)c1
< 10

Determine from records and report selectivity ratio for FC(F)(F)c1cc(Cl)c(-n2cc3c(n2)CC(F)(F)C3(F)F)c(Cl)c1
> 0.5
